Source of measurements: ChEMBL document CHEMBL3885881

- Species: Rattus norvegicus
- ASSAY EXPLANATION: DrugMatrix - Regimen: Daily Repeat
- Assay type: toxicity, organism-based, Sprague-Dawley
- Parameters: regimen Daily Repeat, gender Male, age 6-8 weeks
- ASSAY CONDITIONS: in vivo, po, 0 mg/kg, 72 h, tissue Plasma, route oral GAVAGE, dose level Control, time 3 day, vehicle 100 % WATER
Parameter: ALBUMIN. Scope: all listed entries.
METRIC: ALBUMIN (G/DL)

| MOLECULE | RECORDED NUMBER |
| --- | --- |
| Cc1c(N(C)CS(=O)(=O)[O-])c(=O)n(-c2ccccc2)n1C.[Na+] [DIPYRONE SODIUM] | 4.23 |
| CN1C2CCCC1CC(NC(=O)c1nn(C)c3ccccc13)C2 (stereo unspecified) | 4.08 |
| CC[C@H]1OC(=O)[C@H](C)[C@@H](O[C@H]2C[C@@](C)(OC)[C@@H](O)[C@H](C)O2)[C@H](C)[C@@H](O[C@@H]2O[C@H](C)C[C@H](N(C)C)[C@H]2O)[C@](C)(OC)C[C@@H](C)C(=O)[C@H](C)[C@@H](O)[C@]1(C)O | 4 |
| O=C(O)c1cccnc1 | 3.95 |
| CC[C@H]1OC(=O)[C@H](C)[C@@H](O[C@H]2C[C@@](C)(OC)[C@@H](O)[C@H](C)O2)[C@H](C)[C@@H](O[C@@H]2O[C@H](C)C[C@H](N(C)C)[C@H]2O)[C@](C)(O)C[C@@H](C)CN(C)[C@H](C)[C@@H](O)[C@]1(C)O | 3.95 |
| CCCc1nn(C)c2c(=O)[nH]c(-c3cc(S(=O)(=O)N4CCN(C)CC4)ccc3OCC)nc12 | 4.07 |

* * *

- Species on record: Rattus norvegicus
- ASSAY EXPLANATION: DrugMatrix - Regimen: Daily Repeat
- Type: toxicity, organism-based, Sprague-Dawley
- Parameters: regimen Daily Repeat, gender Male, age 6-8 weeks
- ASSAY CONDITIONS: in vivo, po, 0 mg/kg, 120 h, tissue Blood, route oral GAVAGE, dose level Control, time 5 day, vehicle .5 % CMC
METRIC: EOSINOPHIL (%)

| COMPOUND | METRIC | RECORDED NUMBER |
| --- | --- | --- |
| COc1ccccc1OCC(O)COC(N)=O (configuration not stated) | EOSINOPHIL | 0.33 |
| CC[C@]1(O)CC[C@H]2[C@@H]3CCC4=CCCC[C@@H]4[C@H]3CC[C@@]21C | EOSINOPHIL | 0.44 |
| C=C(CC)C(=O)c1ccc(OCC(=O)O)c(Cl)c1Cl | EOSINOPHIL | 0.17 |
| CC(=O)O[C@]1(C(C)=O)CC[C@H]2[C@@H]3C=C(Cl)C4=CC(=O)[C@@H]5C[C@@H]5[C@]4(C)[C@H]3CC[C@@]21C [CYPROTERONE ACETATE] | EOSINOPHIL | 1 |
| Cc1cnc(C(=O)NCCc2ccc(S(=O)(=O)NC(=O)NC3CCCCC3)cc2)cn1 [GLIPIZIDE] | EOSINOPHIL | 1 |
| C[C@]12C/C(=C/O)C(=O)C[C@@H]1CC[C@@H]1[C@@H]2CC[C@@]2(C)[C@H]1CC[C@]2(C)O | EOSINOPHIL | 1 |
| C[C@@H](O)[C@H]1C(=O)N2C(C(=O)O)=C(S[C@@H]3CN[C@H](C(=O)N(C)C)C3)[C@H](C)[C@H]12 | EOSINOPHIL | 1 |
| CN1C(=O)CN=C(c2ccccc2)c2cc(Cl)ccc21 | EOSINOPHIL | 0.17 |
| CC(C(=O)O)c1ccc(-c2ccccc2)c(F)c1 (configuration not stated) | EOSINOPHIL | 1 |
| Nc1cccc(Cl)c1 | EOSINOPHIL | 0.67 |
| CCCCC1C(=O)N(c2ccccc2)N(c2ccccc2)C1=O | EOSINOPHIL | 0.5 |
| CO[C@H]1C[C@@H]2CC[C@@H](C)[C@@](O)(O2)C(=O)C(=O)N2CCCC[C@H]2C(=O)O[C@H]([C@H](C)C[C@@H]2CC[C@@H](O)[C@H](OC)C2)CC(=O)[C@H](C)/C=C(\C)[C@@H](O)[C@@H](OC)C(=O)[C@H](C)C[C@H](C)/C=C/C=C/C=C/1C | EOSINOPHIL | 0.17 |
